Where these numbers come from: PubChem BioAssay (NCI)

test_description: NCI Yeast Anticancer Drug Screen. Data for the bub3 strain (AID 167)
measurement_setup: S. cerevisiae bub3 mutant strain, at 50.0 µM
The panel holds about 79,000 compounds, 15% with a hit somewhere; the sample as a whole holds those more often. The source made the active and inactive calls. Cut-off read from the data, not from the text of the source: active = growth inhibition above about 70%; inactive = the rest.
Assign a class; possible classes are Yes for active, No for inactive

Q: What did this assay record as the result for CCOC(=O)C(=Cc1ccc(C(=O)OC)cc1)C(=O)OCC ?
A: Yes

Q: What did the test return for O=C1c2ccccc2/C=C\C(c2ccccc2)=N/N1c1ccccc1Cl ?
A: Yes

Q: What was the test verdict on COc1ccc(CSC2=C(C#N)C(=O)NC3(CCCCC3)S2)cc1 ?
A: No

Q: Write down the call the test reported for this compound. Item: CC/S(=N\S(=O)(=O)c1ccc(C)cc1)c1cccc[n+]1[O-] (stereo unspecified)
A: Yes

Q: In this assay, the call recorded for CC(=O)Oc1ccc(C23CC4CC(CC(C4)C2)C3)cc1 was what?
A: Yes

Q: How did this test come out for CCCCCCCCCCCCCCCC(=O)NCCN(C)C ?
A: Yes
